Measured Kb, listed per entry for reference.
biological target: Delta-type opioid receptor (Mus musculus, UniProt P32300); assay: Antagonist activity at delta opioid receptor in mouse vas deferens assessed as inhibition of deltorphin 2-induced response; assay type: functional, tissue-based; details: read-out: pA2 (converted)
Sequence (P32300 whole entry): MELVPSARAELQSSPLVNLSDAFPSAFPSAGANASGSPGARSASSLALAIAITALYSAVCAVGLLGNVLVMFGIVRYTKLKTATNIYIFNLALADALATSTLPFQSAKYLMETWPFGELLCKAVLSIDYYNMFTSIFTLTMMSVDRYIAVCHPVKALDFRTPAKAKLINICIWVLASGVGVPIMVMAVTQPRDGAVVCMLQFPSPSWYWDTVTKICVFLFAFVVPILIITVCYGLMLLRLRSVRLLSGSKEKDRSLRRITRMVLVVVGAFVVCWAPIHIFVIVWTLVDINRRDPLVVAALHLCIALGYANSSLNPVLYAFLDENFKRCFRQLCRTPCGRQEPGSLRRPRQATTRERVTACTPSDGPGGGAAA
Where a SMILES comes first, the peptide text is derived from it. [ ]: non-standard residue; d: D form. Dmt = Cc1cc(O)cc(C)c1C[C@H](N)C(=O)O
Output spec: scalar in nM, unitless text.

Reference set (4 entries):
- MOLECULE: "Cc1cc(C)c(C[C@H](NC(=O)[C@@H]2CCCN2C(=O)[C@@H](N)Cc2c(C)cc(O)cc2C)C(=O)N[C@@H](Cc2ccccc2)C(N)=O)c(C)c1"
  TESTED_TARGET: "Delta-type opioid receptor (Mus musculus, UniProt P32300)"
  RESULT_UNITS: "nM"
  Kb: 0.891
- MOLECULE: "Cc1cccc(C)c1C[C@H](NC(=O)[C@@H]1CCCN1C(=O)[C@@H](N)Cc1c(C)cc(O)cc1C)C(=O)N[C@@H](Cc1ccccc1)C(N)=O"
  TESTED_TARGET: "Delta-type opioid receptor (Mus musculus, UniProt P32300)"
  RESULT_UNITS: "nM"
  Kb: 7.08
- MOLECULE: "Cc1ccccc1C[C@H](NC(=O)[C@@H]1CCCN1C(=O)[C@@H](N)Cc1c(C)cc(O)cc1C)C(=O)N[C@@H](Cc1ccccc1)C(N)=O"
  TESTED_TARGET: "Delta-type opioid receptor (Mus musculus, UniProt P32300)"
  RESULT_UNITS: "nM"
  Kb: 257
- MOLECULE: "Cc1cc(O)cc(C)c1C[C@H](NC(=O)[C@@H]1CCCN1C(=O)[C@@H](N)Cc1c(C)cc(O)cc1C)C(=O)N[C@@H](Cc1ccccc1)C(N)=O (H-[Dmt]P[Dmt]F-NH2)"
  TESTED_TARGET: "Delta-type opioid receptor (Mus musculus, UniProt P32300)"
  RESULT_UNITS: "nM"
  Kb: 87.1

Please look at the following molecule next.
Look at this molecule and give its reported Kb. Cc1cc(C)cc(C[C@H](NC(=O)[C@@H]2CCCN2C(=O)[C@@H](N)Cc2c(C)cc(O)cc2C)C(=O)N[C@@H](Cc2ccccc2)C(N)=O)c1
170

* * *

target: Opioid receptors; mu & delta (Rattus norvegicus) (UniProt P33533+P33535); test: Selectivity for mu opioid receptor over delta opiod receptor in Sprague-Dawley rat brain P2 synaptosome membrane; assay type: tissue-based
Sequence (P33533 whole entry, looked up): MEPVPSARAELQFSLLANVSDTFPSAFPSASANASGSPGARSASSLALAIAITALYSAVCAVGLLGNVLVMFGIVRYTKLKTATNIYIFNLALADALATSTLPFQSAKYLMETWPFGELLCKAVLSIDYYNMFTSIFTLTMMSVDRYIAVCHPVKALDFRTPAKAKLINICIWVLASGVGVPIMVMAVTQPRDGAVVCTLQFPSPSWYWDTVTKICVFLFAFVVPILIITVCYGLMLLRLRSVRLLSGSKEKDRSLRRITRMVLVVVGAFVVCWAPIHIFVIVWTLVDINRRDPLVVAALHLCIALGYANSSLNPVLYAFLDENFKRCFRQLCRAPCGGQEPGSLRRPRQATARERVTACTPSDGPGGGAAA
Sequence (P33535 whole entry, looked up): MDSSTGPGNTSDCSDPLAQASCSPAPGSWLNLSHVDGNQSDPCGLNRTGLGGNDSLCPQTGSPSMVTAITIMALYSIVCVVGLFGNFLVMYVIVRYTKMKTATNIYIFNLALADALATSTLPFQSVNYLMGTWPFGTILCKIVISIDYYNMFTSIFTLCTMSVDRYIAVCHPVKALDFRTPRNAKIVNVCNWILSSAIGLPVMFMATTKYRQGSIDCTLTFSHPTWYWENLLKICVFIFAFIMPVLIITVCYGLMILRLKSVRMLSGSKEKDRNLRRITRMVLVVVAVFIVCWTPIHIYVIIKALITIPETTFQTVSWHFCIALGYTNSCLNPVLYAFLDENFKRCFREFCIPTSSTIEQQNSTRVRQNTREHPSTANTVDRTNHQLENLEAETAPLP
OBSERVABLE: Ratio Ki
Respond using a number only.

Example entries and their recorded answers appear below.
- COMPOUND: "Cc1cc(O)ccc1C[C@H](NC(=O)[C@@H]1CCCN1C(=O)[C@@H](N)Cc1ccc(O)cc1)C(=O)N[C@@H](Cc1ccccc1)C(N)=O"
  READOUT_NUMBER: 1150
- COMPOUND: "Cc1cc(O)cc(C)c1C[C@H](N)C(=O)N1CCC[C@H]1C(=O)N[C@@H](Cc1ccccc1)C(=O)N[C@@H](Cc1ccccc1)C(N)=O"
  READOUT_NUMBER: 382
- COMPOUND: "Cc1cccc(C(C)C)c1C[C@H](NC(=O)[C@@H]1CCCN1C(=O)[C@@H](N)Cc1ccc(O)cc1)C(=O)N[C@@H](Cc1ccccc1)C(N)=O"
  READOUT_NUMBER: 1220
- COMPOUND: "CCc1cccc(C)c1C[C@H](NC(=O)[C@@H]1CCCN1C(=O)[C@@H](N)Cc1ccc(O)cc1)C(=O)N[C@@H](Cc1ccccc1)C(N)=O"
  READOUT_NUMBER: 1070

Can you look up Ratio Ki on Opioid receptors; mu & delta (Rattus norvegicus) (UniProt P33533+P33535) for CCc1cccc(C)c1C[C@H](NC(=O)[C@@H]1CCCN1C(=O)[C@@H](N)Cc1c(C)cc(O)cc1C)C(=O)N[C@@H](Cc1ccccc1)C(N)=O ?
14

Form field - read-out: Ratio Ki; system: Opioid receptors; mu & delta (Rattus norvegicus) (UniProt P33533+P33535); submitted item: Cc1ccccc1C[C@H](NC(=O)[C@@H]1CCCN1C(=O)[C@@H](N)Cc1c(C)cc(O)cc1C)C(=O)N[C@@H](Cc1ccccc1)C(N)=O
26

Which measured Ratio Ki belongs to Cc1cc(C)cc(C[C@H](NC(=O)[C@@H]2CCCN2C(=O)[C@@H](N)Cc2ccc(O)cc2)C(=O)N[C@@H](Cc2ccccc2)C(N)=O)c1 , tested on Opioid receptors; mu & delta (Rattus norvegicus) (UniProt P33533+P33535)?
558
